method_notes: LogD measurement (Sirius T3, potentiometric)
Assay type: physicochemical
measurement_setup: octanol/water, pH 5.6; read-out: log D5.6
measured_parameter: logD
Could you keep your reply to the number by itself?

Enquiry: Hello, please tell me recorded logD for this one: Cl.Cl.O=c1nc(NCCCNCc2cc3c(Cl)cc(Cl)cc3[nH]2)[nH]c2ccccc12 [DDD806905]
Return: 0.3

---

target_desc: LdMetRS (Leishmania donovani)
method_notes: LdMetRS biochemical enzyme assay (BIOMOL Green)
measurement_setup: LdMetRS IC50, 50 nM LdMetRS, 50 μM methionine, 100 μM ATP
measured_parameter: pIC50
Hey, just a heads up that pIC50 is the negative log base 10 of the concentration in molar.

Enquiry: Hello, please tell me recorded pIC50 for this one: Cl.Cl.O=c1nc(NCCCNCc2cc3c(Cl)cc(Cl)cc3[nH]2)[nH]c2ccccc12 [DDD806905]
Return: 7.03

---

target_desc: LdMetRS (Leishmania donovani, UniProt A0A3Q8IBX2)
Sequence (A0A3Q8IBX2 entry or part of it): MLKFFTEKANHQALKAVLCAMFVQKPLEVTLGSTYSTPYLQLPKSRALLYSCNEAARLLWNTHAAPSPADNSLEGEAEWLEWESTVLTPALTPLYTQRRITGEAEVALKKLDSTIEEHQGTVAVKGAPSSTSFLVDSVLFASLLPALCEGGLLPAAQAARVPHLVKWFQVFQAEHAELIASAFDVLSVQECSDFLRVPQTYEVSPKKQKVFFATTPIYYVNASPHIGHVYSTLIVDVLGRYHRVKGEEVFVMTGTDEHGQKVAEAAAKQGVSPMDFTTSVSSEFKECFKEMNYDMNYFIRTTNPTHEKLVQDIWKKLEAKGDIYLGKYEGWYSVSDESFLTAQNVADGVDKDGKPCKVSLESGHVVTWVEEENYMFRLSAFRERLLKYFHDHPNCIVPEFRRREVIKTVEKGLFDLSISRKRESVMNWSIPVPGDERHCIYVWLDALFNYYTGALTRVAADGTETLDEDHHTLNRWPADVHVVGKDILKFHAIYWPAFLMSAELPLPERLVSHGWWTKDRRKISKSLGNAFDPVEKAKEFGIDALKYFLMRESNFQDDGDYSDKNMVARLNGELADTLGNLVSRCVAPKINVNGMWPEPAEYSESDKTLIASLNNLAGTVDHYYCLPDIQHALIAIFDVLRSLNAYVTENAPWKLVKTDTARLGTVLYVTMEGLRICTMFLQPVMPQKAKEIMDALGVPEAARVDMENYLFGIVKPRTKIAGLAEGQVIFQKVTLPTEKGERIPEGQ
method_notes: LdMetRS biochemical enzyme assay (BIOMOL Green)
measurement_setup: LdMetRS IC50, Fig S5A: methionine 50 µM, ATP 500 µM
Description: LdMetRS Assay Development and Kinetic Parameter Determinations Activity of the LdMetRS enzyme was determined by monitoring levels of pyrophosphate released during the first step of the enzymatic reaction. The pyrophosphate formed was converted to two inorganic phosphate molecules using a pyrophosphatase enzyme and levels of the resulting phosphate molecules measured using the BIOMOL® Green reagent (Enzo Life Sciences) 2. […]
measured_parameter: pIC50
Hey, just a heads up that pIC50 is the negative log base 10 of the concentration in molar.

Enquiry: Hello, please tell me recorded pIC50 for this one: Cl.Cl.O=c1nc(NCCCNCc2cc3c(Cl)cc(Cl)cc3[nH]2)[nH]c2ccccc12 [DDD806905]
Return: 6.96

---

method_notes: Mouse pharmacokinetics integrated in efficacy study (blood levels)
measurement_setup: female, BALB/c, whole blood, po, 50 mg/kg, Cmax in blood, infected mice, 50 mg/kg oral, first dose day 1
measured_parameter: Cmax (ng/mL)
Express it in ng/mL; write the number only.

Enquiry: Hello, please tell me recorded Cmax for this one: `Cl.Cl.O=c1nc(NCCCNCc2cc3c(Cl)cc(Cl)cc3[nH]2)[nH]c2ccccc12`
Return: 2600

---

Tested on: protein synthesis in Leishmania tarentolae cell extract
method_notes: Leishmania tarentolae in vitro translation (eGFP expression in cell extract)
Format: biochemical
measurement_setup: L. tarentolae extract, additional 1.5 mM methionine; read-out: EC50 inhibition of eGFP protein synthesis
measured_parameter: pEC50
Hey, just a heads up that pEC50 is the negative log base 10 of the concentration in molar.

Enquiry: Hello, please tell me recorded pEC50 for this one: Cl.Cl.O=c1nc(NCCCNCc2cc3c(Cl)cc(Cl)cc3[nH]2)[nH]c2ccccc12 [DDD806905]
Return: 4.92

---

target_desc: LdMetRS (Leishmania donovani, UniProt A0A3Q8IBX2)
method_notes: LdMetRS biochemical enzyme assay (BIOMOL Green)
measurement_setup: Supplementary Table 1; read-out: LdMetRS IC50
measured_parameter: pIC50
Hey, just a heads up that pIC50 is the negative log base 10 of the concentration in molar.

Examples from the recorded data:
COc1cc(C(F)(F)F)c2cc(CNCCCNc3nc4ccccc4[nH]3)[nH]c2c1    5.32
COc1cccc2[nH]c(NCCCNCc3cc(Br)cc(Br)c3)nc12    4.10
CCOc1c(Br)cc(C)cc1CNCCCNc1nc2ccccc2[nH]1    4.92
Cc1c(CNCCCNc2nc3ccccc3[nH]2)[nH]c2cc(Cl)cc(Cl)c12    5.55

Enquiry: Hello, please tell me recorded pIC50 for this one: `OCCn1c(CNCCCNc2nc3ccccc3[nH]2)cc2c(Cl)cc(Cl)cc21`
Return: 6.42
